- assayTarget: T1, hIL-4R on cells (STAT6-transfected HEK293, TF1, TF1/A12) (human, UniProt P24394 26-825)
- T1 sequence (looked up): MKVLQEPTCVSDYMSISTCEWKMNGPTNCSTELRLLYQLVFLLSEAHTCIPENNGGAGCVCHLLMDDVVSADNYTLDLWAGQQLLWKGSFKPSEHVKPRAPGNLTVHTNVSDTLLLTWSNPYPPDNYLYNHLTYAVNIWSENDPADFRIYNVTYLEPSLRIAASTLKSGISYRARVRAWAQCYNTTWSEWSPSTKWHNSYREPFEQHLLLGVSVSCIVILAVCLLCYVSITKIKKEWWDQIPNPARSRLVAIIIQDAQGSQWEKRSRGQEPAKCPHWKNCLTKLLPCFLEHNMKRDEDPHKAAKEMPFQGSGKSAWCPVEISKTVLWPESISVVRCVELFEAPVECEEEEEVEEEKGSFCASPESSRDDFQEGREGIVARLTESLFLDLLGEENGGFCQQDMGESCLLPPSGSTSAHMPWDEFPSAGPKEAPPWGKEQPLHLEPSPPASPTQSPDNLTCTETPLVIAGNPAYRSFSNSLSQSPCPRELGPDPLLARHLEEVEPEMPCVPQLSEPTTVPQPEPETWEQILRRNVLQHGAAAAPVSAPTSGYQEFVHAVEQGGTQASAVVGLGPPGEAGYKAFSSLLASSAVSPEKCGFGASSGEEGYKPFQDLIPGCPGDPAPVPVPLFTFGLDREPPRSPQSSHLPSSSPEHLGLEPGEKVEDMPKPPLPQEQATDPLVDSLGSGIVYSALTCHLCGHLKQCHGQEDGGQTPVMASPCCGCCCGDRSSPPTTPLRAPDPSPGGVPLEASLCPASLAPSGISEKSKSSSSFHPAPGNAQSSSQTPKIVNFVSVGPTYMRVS
- assayComment: cell-based or functional assay
assayEndpoint: TF1/A12 Bioassay IC50 (proliferation, 20 pM hIL-4) (nM)
Give bare numbers, in nM.

binder="VAB 15C8-17 (antibody, V domains shown, Apparently tested with mouse constant region (anti-mouse IgG capture/detection)) VH: QVQLVESGGGLVQPGGSLRLSCAVSGFTISDHYMSWIRQAPGKGLEWISYISSSGSKIYYADSVKGRFTISRDNAKNSLFLQMNSLRAEDTAVYYCARTRQLVGDYWGQGTLVTVSS VL: DIQLTQSPSFLSASVGDRVTITCWASQGISSYLAWYQQKPGKAPKLLIFAASTLQSGVPSRFSGSGSGTEFTLTISSLQPEDFATYYCQQLNSYPLTFGGGTKVEIR" endpointunit=nM reportedresult=4.7

Now consider a different binder.
Task item: I would be grateful if you could share the reported TF1/A12 Bioassay IC50 (proliferation, 20 pM hIL-4) for VAB 10G8-19 (antibody, V domains shown, Apparently tested with mouse constant region (anti-mouse IgG capture/detection)) VH: QVQLVQSGAEVKKPGASVKVSCKASRYTFTSYDINWVRQATGQGLEWMGWMNPNSGNTGYAQKFQGRVTMTRNTSTSTAYMELSSLRSEDTAVYYCARVRRFFDYWGQGTLVTVSS VL: DIQLTQSPSFLSASVGDRVTITCWASQGIISYLAWYQQKPGKAPKLLIYAASTLHSGVPSRFSGSGSGTEFTLTISSLQPEDFATYYCHQLKSYPITFGQGTRLEIK .
Reply: 12.8
